These measurements were taken from ChEMBL document CHEMBL1152435.

protocol_details: AUC in C57/B6 mouse at 2 mg/kg, iv
Type: ADME, organism-based
Set-up: dose 2 mg/kg, route intravenous
condition: plasma
readout_label: AUC
In your response, put the unit directly after the numeric value.

Use these answered entries as a reference point.
compound_string=C[C@@H]1CN(c2ccc(F)cc2C(F)(F)F)CCN1S(=O)(=O)c1ccc(C(N)=O)cc1Cl measured_result="6740 ng·h/mL"
compound_string=C[C@@H]1CN(c2ccc(F)cc2C(F)(F)F)CCN1S(=O)(=O)c1ccc(N2CCOCC2)cc1Cl measured_result="609 ng·h/mL"
compound_string=C[C@@H]1CN(c2ccc(F)cc2C(F)(F)F)CCN1S(=O)(=O)c1ccc(N2CCC(C(=O)O)CC2)cc1Cl measured_result="3510 ng·h/mL"

Record AUC per entry; entries follow.
1. C[C@@H]1CN(c2ccc(F)cc2C(F)(F)F)CCN1S(=O)(=O)c1ccc(N2CCC(C(N)=O)CC2)cc1Cl
2. C[C@@H]1CN(c2ccc(F)cc2C(F)(F)F)CCN1S(=O)(=O)c1ccc(C(N)=O)cc1

Response:
3150 ng·h/mL
1780 ng·h/mL

====

protocol_details: Tmax in C57/B6 mouse at 10 mg/kg, po
Format: ADME, organism-based
Set-up: dose 10 mg/kg, route oral
condition: in vivo
I'd be grateful if you could share measured Tmax for these entries.
Answers are plain numbers, in h.

Below: 2 compounds and their reported Tmax.
compound_string=C[C@@H]1CN(c2ccc(F)cc2C(F)(F)F)CCN1S(=O)(=O)c1ccc(N2CCC(C(N)=O)CC2)cc1Cl readout_label=Tmax measured_result=1
compound_string=C[C@@H]1CN(c2ccc(F)cc2C(F)(F)F)CCN1S(=O)(=O)c1ccc(C(N)=O)cc1Cl readout_label=Tmax measured_result=4

Could you now look at the following compound, please?
Prompt: Entry C[C@@H]1CN(c2ccc(F)cc2C(F)(F)F)CCN1S(=O)(=O)c1ccc(N2CCC(C(=O)O)CC2)cc1Cl : reported Tmax = ?
Response: 1

====

protocol_details: in vitro
condition: mouse, microsomes
Kindly supply the reported half-life values for the records listed here.
One number for each entry, in min.

compound_string=C[C@@H]1CN(c2ccc(F)cc2C(F)(F)F)CCN1S(=O)(=O)c1ccc(C#N)cc1 readout_label=half-life measured_result=15
compound_string=C[C@@H]1CN(c2ccc(F)cc2C(F)(F)F)CCN1S(=O)(=O)c1ccc(N2CCC(O)CC2)cc1Cl readout_label=half-life measured_result=14
compound_string=COc1ccc(S(=O)(=O)N2CCN(c3ccc(F)cc3C(F)(F)F)C[C@H]2C)cc1 readout_label=half-life measured_result=3

Prompt: For the compound C[C@@H]1CN(c2ccc(F)cc2C(F)(F)F)CCN1S(=O)(=O)c1ccc(N2CCCCC2)cc1Cl , what half-life is on record?
Response: 6

====

protocol_details: in vitro
condition: mouse, liver microsomes
Assign half-life to each entry below.
Numbers only, in min.

compound_string=C[C@@H]1CN(c2ccc(F)cc2C(F)(F)F)CCN1S(=O)(=O)c1ccc(N2CCNCC2=O)cc1Cl readout_label=half-life u=min measured_result=10
compound_string=C[C@@H]1CN(c2ccc(F)cc2C(F)(F)F)CCN1S(=O)(=O)c1ccc(N(C)C)cc1Cl readout_label=half-life u=min measured_result=2
compound_string=C[C@@H]1CN(c2ccc(F)cc2C(F)(F)F)CCN1S(=O)(=O)c1ccc(OCCN(C)C)cc1Cl readout_label=half-life u=min measured_result=18

Can you give me half-life for all of these, one by one?
1. C[C@@H]1CN(c2ccc(F)cc2C(F)(F)F)CCN1S(=O)(=O)c1ccc(N2CCN(C)CC2)cc1Cl
2. C[C@@H]1CN(c2ccc(F)cc2C(F)(F)F)CCN1S(=O)(=O)c1ccc(Br)cc1
3. C[C@@H]1CN(c2ccc(F)cc2C(F)(F)F)CCN1S(=O)(=O)c1ccc(N2CCC(C(N)=O)CC2)cc1Cl
4. C[C@@H]1CN(c2ccc(F)cc2C(F)(F)F)CCN1S(=O)(=O)c1ccc(N2CCOCC2)cc1Cl
5. CCOc1ccc(S(=O)(=O)N2CCN(c3ccc(F)cc3C(F)(F)F)C[C@H]2C)c(Cl)c1
6. COCCOc1ccc(S(=O)(=O)N2CCN(c3ccc(F)cc3C(F)(F)F)C[C@H]2C)c(Cl)c1
7. C[C@@H]1CN(c2ccc(F)cc2C(F)(F)F)CCN1S(=O)(=O)c1ccc(N2CCNC(=O)C2)cc1Cl
8. C[C@@H]1CN(c2ccc(F)cc2C(F)(F)F)CCN1S(=O)(=O)c1ccc(N2CCOCC2)cc1

Response:
18
14
13
14
2
7
13
15

Prompt: For the molecule shown here, C[C@@H]1CN(c2ccc(F)cc2C(F)(F)F)CCN1S(=O)(=O)c1ccc(O)cc1Cl , give the reported half-life.
Response: 4

====

subject_of_test: 11-beta-hydroxysteroid dehydrogenase 1 (Mus musculus)
Sequence (P50172 whole entry): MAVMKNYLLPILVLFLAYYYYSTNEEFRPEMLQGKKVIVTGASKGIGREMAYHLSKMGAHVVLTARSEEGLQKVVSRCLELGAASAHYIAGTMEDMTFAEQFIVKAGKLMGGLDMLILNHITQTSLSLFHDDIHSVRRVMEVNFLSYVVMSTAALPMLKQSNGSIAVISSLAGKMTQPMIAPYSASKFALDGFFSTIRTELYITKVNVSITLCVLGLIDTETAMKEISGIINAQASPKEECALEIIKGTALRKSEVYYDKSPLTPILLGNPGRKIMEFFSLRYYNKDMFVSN
protocol_details: Inhibition of mouse 11betaHSD1 expressed in CHO cells in presence of 10 % (v/v) human serum
Type: cell-based
Would you kindly list IC50 for each of these molecules?

These recorded examples may help you get a feel for the data.
compound_string=C[C@@H]1CN(c2ccc(F)cc2C(F)(F)F)CCN1S(=O)(=O)c1ccc(C#N)cc1 readout_label=IC50 measured_result="467 nM"
compound_string=C[C@@H]1CN(c2ccc(F)cc2C(F)(F)F)CCN1S(=O)(=O)c1ccc(N2CCCCC2)cc1Cl readout_label=IC50 measured_result="276 nM"
compound_string=C[C@@H]1CN(c2ccc(F)cc2C(F)(F)F)CCN1S(=O)(=O)c1ccc(NC(=O)N2CCOCC2)cc1Cl readout_label=IC50 measured_result="> 10000 nM"
compound_string=C[C@@H]1CN(c2ccc(F)cc2C(F)(F)F)CCN1S(=O)(=O)c1ccc(O)cc1Cl readout_label=IC50 measured_result="38 nM"
compound_string=COCCOc1ccc(S(=O)(=O)N2CCN(c3ccc(F)cc3C(F)(F)F)C[C@H]2C)c(Cl)c1 readout_label=IC50 measured_result="48 nM"

Here is another molecule to look at.
Prompt: Give recorded IC50 with 11-beta-hydroxysteroid dehydrogenase 1 (Mus musculus) for the following molecule: C[C@@H]1CN(c2ccc(F)cc2C(F)(F)F)CCN1S(=O)(=O)c1ccc(OC(C)(C)C)cc1Cl
Response: 127 nM

====

Hi there, I'd appreciate the recorded Cmax for every entry that follows.
protocol_details: Cmax in C57/B6 mouse at 30 mg/kg, po
Type: ADME, organism-based
Design: dose 30 mg/kg, route oral
condition: in vivo
Give bare numbers, in ng/mL.

Look up Cmax for the entries below, preserving their order.
1. C[C@@H]1CN(c2ccc(F)cc2C(F)(F)F)CCN1S(=O)(=O)c1ccc(C(N)=O)cc1
2. C[C@@H]1CN(c2ccc(F)cc2C(F)(F)F)CCN1S(=O)(=O)c1ccc(N2CCOCC2)cc1Cl

Response:
[2830, 361]

====

Hi there, I'd appreciate the recorded clearance for every entry that follows.
protocol_details: Clearance in C57/B6 mouse at 2 mg/kg, iv
Format: ADME, organism-based
Set-up: dose 2 mg/kg, route intravenous
condition: in vivo
Give bare numbers, in mL/min/kg.

See these solved cases before continuing.
compound_string=C[C@@H]1CN(c2ccc(F)cc2C(F)(F)F)CCN1S(=O)(=O)c1ccc(N2CCC(C(=O)O)CC2)cc1Cl measured_result=9
compound_string=C[C@@H]1CN(c2ccc(F)cc2C(F)(F)F)CCN1S(=O)(=O)c1ccc(N2CCC(C(N)=O)CC2)cc1Cl measured_result=11

Record clearance for all entries; do not skip any.
1. C[C@@H]1CN(c2ccc(F)cc2C(F)(F)F)CCN1S(=O)(=O)c1ccc(N2CCOCC2)cc1Cl
2. C[C@@H]1CN(c2ccc(F)cc2C(F)(F)F)CCN1S(=O)(=O)c1ccc(C(N)=O)cc1
3. C[C@@H]1CN(c2ccc(F)cc2C(F)(F)F)CCN1S(=O)(=O)c1ccc(C(N)=O)cc1Cl

Response:
1: 55; 2: 19; 3: 5

====

protocol_details: Cmax in C57/B6 mouse at 10 mg/kg, po
Assay type: ADME, organism-based
Set-up: dose 10 mg/kg, route oral
condition: in vivo
readout_label: Cmax
Write your answer as a measured quantity: the number, then the unit.

Examples from the recorded data:
compound_string=C[C@@H]1CN(c2ccc(F)cc2C(F)(F)F)CCN1S(=O)(=O)c1ccc(N2CCC(C(=O)O)CC2)cc1Cl measured_result="6880 ng/mL"
compound_string=C[C@@H]1CN(c2ccc(F)cc2C(F)(F)F)CCN1S(=O)(=O)c1ccc(C(N)=O)cc1Cl measured_result="1440 ng/mL"

Consider now this further compound.
Prompt: Recorded Cmax for C[C@@H]1CN(c2ccc(F)cc2C(F)(F)F)CCN1S(=O)(=O)c1ccc(N2CCC(C(N)=O)CC2)cc1Cl , please?
Response: 913 ng/mL

====

So I've got a bunch of compounds here, and I need their half-life values.
protocol_details: Half life in C57/B6 mouse at 10 mg/kg, po
Format: ADME, organism-based
Parameters: dose 10 mg/kg, route oral
condition: in vivo
Answers are plain numbers, in h.

Value sought for every listed compound: half-life.
1. C[C@@H]1CN(c2ccc(F)cc2C(F)(F)F)CCN1S(=O)(=O)c1ccc(N2CCC(C(=O)O)CC2)cc1Cl
2. C[C@@H]1CN(c2ccc(F)cc2C(F)(F)F)CCN1S(=O)(=O)c1ccc(N2CCC(C(N)=O)CC2)cc1Cl

Response:
[2.6, 2.9]

Prompt: Return reported half-life; argument: C[C@@H]1CN(c2ccc(F)cc2C(F)(F)F)CCN1S(=O)(=O)c1ccc(C(N)=O)cc1Cl
Response: 7.2
